Provenance of the data: the supplement of paper PMC10567573

B1: RAD51 (parent)
chain: RFLRMLLRLADEFGVAVVITNQVV

Variants of: B1
Assay: protein stability index of a GFP-peptide fusion (GPS, HEK-293T) (PSI 1-6); higher = more stable;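 note: lentivirally expressed fusions sorted by FACS into six bins by GFP to DsRed ratio, PSI derived from sequencing read proportions per bin multiplied by bin number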
Conditions: c terminus: a fixed tail appended
quantity: protein stability index
Answer with a bare number; do not write a unit.

In the examples that follow, each entry is paired with its recorded protein stability index.
# residue.change, protein stability index
data = [
    ("F13R", 2.34),
    ("I19T", 2.84),
    ("F2I", 2.4),
    ("R8L", 3.02),
    ("A16N", 3.11),
]

Record T20F , field protein stability index: 1.3

Record V18R , field protein stability index: 2.94

Record V17G , field protein stability index: 3.41
